- System: HepG2
- EXPERIMENT: cytotoxicity call (relative viability < 0.9)
- REPORTED_CONDITIONS: 10 µM
Screen size: about 39,000 compounds; about 3,300 (8.5%) were called active. The sample holds actives, similar compounds and a random draw of the others, so the mix is not that of the screen.
Please state which outcome applies, choosing from active, inactive

[ask] How was NNC(=O)CN1CCCc2ccccc21 classified in this test?
[reply] inactive

[ask] How was C[C@H]1CCCCO[C@H](CN(C)Cc2ccccc2)[C@@H](C)CN([C@@H](C)CO)C(=O)c2cc(NS(=O)(=O)c3cccs3)ccc2O1 classified in this test?
[reply] inactive

[ask] How was C[C@H]1CN([C@@H](C)CO)S(=O)(=O)c2ccc(C#Cc3cccnc3)cc2O[C@@H]1CN(C)C(=O)Nc1ccc2c(c1)OCO2 classified in this test?
[reply] inactive

[ask] How was CN(C)CCCN1c2ccccc2CCc2ccccc21.Cl classified in this test?
[reply] active

[ask] How was C[C@H](CO)N1C[C@H](C)[C@@H](CN(C)Cc2ccc(Cl)c(Cl)c2)Oc2c(NS(=O)(=O)c3ccc(Cl)cc3)cccc2C1=O classified in this test?
[reply] inactive

[ask] How was C[C@@H]1CN([C@H](C)CO)S(=O)(=O)c2ccc(C#Cc3ccncc3)cc2O[C@@H]1CN(C)C(=O)Nc1ccc2c(c1)OCO2 classified in this test?
[reply] active

[ask] How was C[C@H](CO)N1C[C@H](C)[C@H](CN(C)Cc2ccc(C(=O)O)cc2)Oc2ccc(NS(C)(=O)=O)cc2C1=O classified in this test?
[reply] inactive

[ask] How was C[C@@H]1CN([C@H](C)CO)C(=O)c2cc(NS(C)(=O)=O)ccc2O[C@@H](C)CCCCO[C@@H]1CN(C)C(=O)c1ccncc1 classified in this test?
[reply] inactive

[ask] How was C[C@H](CO)N1C[C@H](C)[C@H](CN(C)C(=O)Nc2cccc3ccccc23)Oc2ccc(NC(=O)C3CCCCC3)cc2C1=O classified in this test?
[reply] inactive

[ask] How was C[C@@H]1CN([C@H](C)CO)S(=O)(=O)c2ccc(C#Cc3cccnc3)cc2O[C@@H]1CN(C)C(=O)Nc1ccc2c(c1)OCO2 classified in this test?
[reply] inactive

[ask] How was CC(C)NC(=O)Nc1ccc2c(c1)C(=O)N([C@@H](C)CO)C[C@@H](C)[C@@H](CN(C)Cc1ccc(Oc3ccccc3)cc1)O2 classified in this test?
[reply] inactive

[ask] How was CC(C)NC(=O)Nc1ccc2c(c1)C(=O)N([C@H](C)CO)C[C@@H](C)[C@H](CN(C)Cc1ccc(Oc3ccccc3)cc1)O2 classified in this test?
[reply] inactive

[ask] How was C[C@H]1CN([C@@H](C)CO)S(=O)(=O)c2ccc(C#Cc3cccnc3)cc2O[C@H]1CN(C)C(=O)Nc1ccc2c(c1)OCO2 classified in this test?
[reply] inactive

[ask] How was C[C@H](CO)N1C[C@H](C)[C@H](CN(C)Cc2ccc(Oc3ccccc3)cc2)Oc2ccc(NC(=O)NC3CCCCC3)cc2C1=O classified in this test?
[reply] inactive

[ask] How was C[C@H](CO)N1C[C@H](C)[C@H](CN(C)S(C)(=O)=O)Oc2c(cccc2N(C)C)C1=O classified in this test?
[reply] inactive

[ask] How was C=CCOC(=O)[C@H]1[C@@H]2C(=O)O[C@@H](c3ccccc3)[C@@H](c3ccccc3)N2[C@@H](c2ccc(OCCOC(=O)[C@@H]3C[C@@H]4C(=O)N[C@@H](CC(C)C)C(=O)N4[C@@H]3c3cccc(OCCO)c3)cc2)[C@]12C(=O)Nc1ccc(I)cc12 classified in this test?
[reply] inactive

[ask] How was CN(C)CCCN1c2ccccc2Sc2ccc(Cl)cc21.Cl classified in this test?
[reply] active

[ask] How was C[C@@H]1CCCCO[C@H](CN(C)Cc2ccc(C(F)(F)F)cc2)[C@@H](C)CN([C@H](C)CO)C(=O)c2cc(NC(=O)NC3CCCCC3)ccc2O1 classified in this test?
[reply] active

[ask] How was COc1ccc(C2Sc3ccccc3N(CCN(C)C)C(=O)C2OC(C)=O)cc1.Cl (stereo not given) classified in this test?
[reply] inactive

[ask] How was CN(C)CCCN1C(=O)[C@@]2(Cc3ccccc31)c1ccccc1C(=O)N(Cc1ccccc1)[C@H]2c1ccc(CO)cc1 classified in this test?
[reply] inactive

[ask] How was CC(=O)c1ccc2c(c1)N(CCCN(C)C)c1ccccc1S2.O=C(O)C=CC(=O)O classified in this test?
[reply] inactive

[ask] How was COc1ccc(S(=O)(=O)N(C)C[C@@H]2OCCCC[C@H](C)Oc3ccc(NC(=O)C4CCCCC4)cc3C(=O)N([C@H](C)CO)C[C@H]2C)cc1 classified in this test?
[reply] inactive

[ask] How was C[C@@H]1CN([C@H](C)CO)C(=O)c2cc(NC(=O)NC3CCCCC3)ccc2O[C@H]1CN(C)Cc1ccc(Oc2ccccc2)cc1 classified in this test?
[reply] inactive

[ask] How was C[C@@H]1CCCCO[C@@H](CN(C)Cc2ccc(C(F)(F)F)cc2)[C@@H](C)CN([C@@H](C)CO)C(=O)c2cc(NC(=O)NC3CCCCC3)ccc2O1 classified in this test?
[reply] active

[ask] How was C[C@H](CO)N1C[C@H](C)[C@@H](CN(C)S(C)(=O)=O)Oc2ccc(NS(=O)(=O)c3ccc(Cl)cc3)cc2CC1=O classified in this test?
[reply] inactive

[ask] How was Cc1ccc(S[C@]2(C(=O)NC(C)C)CC(=O)N(Cc3ccccc3C(F)(F)F)[C@@H]2c2ccc(CO)cc2I)cc1 classified in this test?
[reply] inactive

[ask] How was C[C@@H]1CN([C@H](C)CO)C(=O)c2c(c3ccccc3n2C)-c2ccccc2CO[C@H]1CN(C)Cc1ccc(Oc2ccccc2)cc1 classified in this test?
[reply] inactive

[ask] How was CCCOC(=S)N[C@H]1OC[C@@H](O)[C@@H](O)[C@@H]1O classified in this test?
[reply] inactive

[ask] How was C[C@@H]1CN([C@H](C)CO)S(=O)(=O)c2ccc(C#Cc3cccnc3)cc2O[C@H]1CN(C)C(=O)Nc1ccc2c(c1)OCO2 classified in this test?
[reply] inactive

[ask] How was C[C@@H]1CN([C@@H](C)CO)S(=O)(=O)c2ccc(C#Cc3ccncc3)cc2O[C@H]1CN(C)C(=O)Nc1ccc2c(c1)OCO2 classified in this test?
[reply] active

====

- Tested on: HepG2
- EXPERIMENT: cytotoxicity call (relative viability < 0.9)
- REPORTED_CONDITIONS: 10 µM
The whole screen tested about 39,000 compounds, of which about 3,300 (8.5%) were called active. The entries come from a sample that favours actives as a whole.
Please state which outcome applies, choosing from yes (1) = active, no (0) = inactive

[ask] How was Cc1ccc(S(=O)(=O)N(C)C[C@@H]2Oc3c(NC(=O)Nc4cccc5ccccc45)cccc3C(=O)N([C@H](C)CO)C[C@H]2C)cc1 classified in this test?
[reply] no (0)

[ask] How was C[C@H](CO)N1C[C@H](C)[C@@H](CN(C)S(=O)(=O)c2cccc(F)c2)Oc2ncc(C#CC3CCCC3)cc2C1=O classified in this test?
[reply] no (0)

[ask] How was N=C(N)c1ccc(C(N)=O)cc1 classified in this test?
[reply] no (0)

[ask] How was C[C@@H]1CN([C@@H](C)CO)C(=O)c2cc(C#CC3CCCC3)cnc2O[C@H]1CN(C)S(=O)(=O)c1cccc(F)c1 classified in this test?
[reply] yes (1)

[ask] How was C[C@@H]1CCCCO[C@@H](CN(C)S(=O)(=O)c2ccc(F)cc2)[C@H](C)CN([C@@H](C)CO)C(=O)c2cc(NC(=O)Nc3ccc(F)cc3)ccc2O1 classified in this test?
[reply] no (0)

[ask] How was C[C@@H]1CN([C@H](C)CO)C(=O)c2cc(C#CC3CCCC3)cnc2O[C@H]1CN(C)S(=O)(=O)c1cccc(F)c1 classified in this test?
[reply] no (0)

[ask] How was O=C(/C=C/c1ccc(O)c(O)c1)O[C@@H]1C[C@@](O)(C(=O)O)C[C@@H](O)[C@@H]1O classified in this test?
[reply] yes (1)

[ask] How was Cc1ccc(S(=O)(=O)Nc2ccc3c(c2)C(=O)N([C@H](C)CO)C[C@@H](C)[C@@H](CN(C)Cc2ccc(-c4ccccc4)cc2)O3)cc1 classified in this test?
[reply] yes (1)

[ask] How was CC(=O)NCCOc1ccc(C(=O)O)cc1 classified in this test?
[reply] no (0)

[ask] How was Cc1ccc(S(=O)(=O)Nc2ccc3c(c2)C(=O)N([C@@H](C)CO)C[C@@H](C)[C@@H](CN(C)Cc2ccc(-c4ccccc4)cc2)O3)cc1 classified in this test?
[reply] yes (1)

[ask] How was C[C@@H]1CCCCO[C@@H](CN(C)S(=O)(=O)c2ccc(F)cc2)[C@H](C)CN([C@H](C)CO)C(=O)c2cc(NC(=O)Nc3ccc(F)cc3)ccc2O1 classified in this test?
[reply] yes (1)

[ask] How was C[C@H]1CN([C@@H](C)CO)C(=O)c2cc(C#CC3CCCC3)cnc2O[C@@H]1CN(C)S(=O)(=O)c1cccc(F)c1 classified in this test?
[reply] yes (1)

[ask] How was C[C@@H]1CN([C@@H](C)CO)C(=O)c2cc(NC(=O)Nc3ccc(F)cc3)ccc2O[C@@H](C)CCCCO[C@@H]1CN(C)S(=O)(=O)c1ccc(F)cc1 classified in this test?
[reply] no (0)

[ask] How was COC(=O)[C@H]1[C@H](CO)[C@H]2Cn3c(cccc3=O)[C@H]2N1C(=O)C1CC1 classified in this test?
[reply] no (0)

[ask] How was O=C(C=Cc1ccc(O)c(O)c1)OC1CC(O)(C(=O)O)CC(O)C1O (stereo not drawn) classified in this test?
[reply] no (0)

[ask] How was COCC#Cc1ccc2c(c1)O[C@@H](CN(C)C(=O)CN(C)C)[C@H](C)CN([C@H](C)CO)S2(=O)=O classified in this test?
[reply] no (0)

[ask] How was C[C@@H]1CN([C@@H](C)CO)C(=O)Cc2cc(NC(=O)Nc3cccc4ccccc34)ccc2O[C@H]1CN(C)Cc1ccc(-c2ccccc2)cc1 classified in this test?
[reply] no (0)

[ask] How was C/C1=C2/[N]([Co+][OH])[C@H]([C@H](CC(N)=O)[C@@]2(C)CCC(=O)NC[C@@H](C)OP(=O)(O)O[C@H]2[C@@H](O)[C@@H](n3cnc4cc(C)c(C)cc43)O[C@@H]2CO)[C@]2(C)N=C(/C(C)=C3N=C(/C=C4N=C1[C@@H](CCC(N)=O)C/4(C)C)[C@@H](CCC(N)=O)[C@]\3(C)CC(N)=O)[C@@H](CCC(N)=O)[C@]2(C)CC(N)=O classified in this test?
[reply] yes (1)

[ask] How was O=C(C[C@@H]1CC[C@H]2[C@@H](COC[C@@H](O)CN2S(=O)(=O)c2ccc(F)cc2)O1)NCc1ccc(Cl)c(Cl)c1 classified in this test?
[reply] no (0)

[ask] How was COc1ccc2c3c(n(c2c1)C)[C@H](CO)N(C[C@]13CN(C1)C(=O)C1CC1)C(=O)CN1CCOCC1 classified in this test?
[reply] no (0)

[ask] How was CC(=O)N[C@H]1[C@H]([C@H](O)[C@H](O)CO)OC(C(=O)O)=C[C@@H]1NC(=N)N classified in this test?
[reply] no (0)

[ask] How was Cc1ccc(S(=O)(=O)Nc2ccc3c(c2)C(=O)N([C@H](C)CO)C[C@H](C)[C@H](CN(C)Cc2ccc(-c4ccccc4)cc2)O3)cc1 classified in this test?
[reply] yes (1)

[ask] How was C[C@@H]1CCCCO[C@@H](CN(C)S(=O)(=O)c2ccc(F)cc2)[C@@H](C)CN([C@H](C)CO)C(=O)c2cc(NC(=O)Nc3ccc4c(c3)OCO4)ccc2O1 classified in this test?
[reply] no (0)

[ask] How was Cc1ccc(S(=O)(=O)Nc2ccc3c(c2)C(=O)N([C@@H](C)CO)C[C@H](C)[C@H](CN(C)Cc2ccc(-c4ccccc4)cc2)O3)cc1 classified in this test?
[reply] no (0)

[ask] How was Cc1ccc(S(=O)(=O)Nc2ccc3c(c2)C(=O)N([C@H](C)CO)C[C@@H](C)[C@H](CN(C)Cc2ccc(-c4ccccc4)cc2)O3)cc1 classified in this test?
[reply] no (0)

[ask] How was Cc1ccc(S(=O)(=O)Nc2ccc3c(c2)C(=O)N([C@H](C)CO)C[C@H](C)[C@@H](CN(C)Cc2ccc(-c4ccccc4)cc2)O3)cc1 classified in this test?
[reply] no (0)

[ask] How was C[C@@H]1CN([C@H](C)CO)C(=O)c2cc(NC(=O)Nc3ccc4c(c3)OCO4)ccc2O[C@@H](C)CCCCO[C@@H]1CN(C)S(=O)(=O)c1ccc(F)cc1 classified in this test?
[reply] no (0)

[ask] How was C[C@@H]1CN([C@H](C)CO)C(=O)c2cc(C#CC3CCCC3)cnc2O[C@@H]1CN(C)S(=O)(=O)c1cccc(F)c1 classified in this test?
[reply] no (0)

Measured values drawn from the antibiotic and cytotoxicity screens of Wong et al. (2023) for this set.
